Answer each item with its documented Cell viability percentage, MCF-7.
Test system: breast cancer (MCF-7) cell line
assayRemarks: MTT cytotoxicity assay, MCF-7
measurementContext: Conc. 5 (µM per method); Table S2

| molecule | result |
| --- | --- |
| CC1=[N+]([O-])C(c2ccccc2)Nc2ccc(I)cc21 (stereo not shown) | 22,0559% |

Below are some molecules; for each one, tell me its Cell viability percentage, MCF-7.
1. COc1ccc(C2Nc3c(Br)cc(I)cc3C(C)=[N+]2[O-])cc1 (stereo not shown)
2. CC1=[N+]([O-])C(c2ccc(Cl)cc2)Nc2c(Br)cc(I)cc21 (stereo not shown)

["70,8112%", "41,6001%"]

---

assayRemarks: NO free radical scavenging assay (sodium nitroprusside/Griess)
measurementContext: mean ± SD; sodium nitroprusside, Griess reagent, 550 nm
Answer each item with its documented IC50.
Give bare numbers, in µM.

Example results:
| molecule | observedProperty | quantitativeReadout |
| --- | --- | --- |
| CC1=[N+]([O-])C(c2ccc(F)cc2)Nc2ccc(Br)cc21 (stereo not drawn) | IC50 | 15.1 |
| COc1ccc(C2Nc3ccc(Br)cc3C(C)=[N+]2[O-])cc1 (stereo not drawn) | IC50 | 24.4 |
| CC1=[N+]([O-])C(c2ccccc2)Nc2c(Br)cc(I)cc21 (stereo not drawn) | IC50 | 55.4 |
| CC1=[N+]([O-])C(c2ccccc2)Nc2ccc(I)cc21 (stereo not drawn) | IC50 | 52.4 |
| CC1=[N+]([O-])C(c2ccccc2)Nc2ccc(Br)cc21 (stereo not drawn) | IC50 | 27.3 |

Below are some molecules; for each one, tell me its IC50.
1. CC1=[N+]([O-])C(c2ccc(Cl)cc2)Nc2ccc(Br)cc21 (stereo not drawn)
2. CC1=[N+]([O-])C(c2ccc(F)cc2)Nc2c(I)cc(Br)cc21 (stereo not drawn)
3. CC1=[N+]([O-])C(c2ccc(Cl)cc2)Nc2c(I)cc(Br)cc21 (stereo not drawn)

[7.45, 5.17, 15]

Requested field: IC50. Item: COc1ccc(C2Nc3c(I)cc(Br)cc3C(C)=[N+]2[O-])cc1 (stereo not drawn)
67.8

---

assayRemarks: MTT cytotoxicity assay, HEK293-T
measurementContext: human, HEK293-T cells
Our labelling divides records by viability at 10 µM into ranges: small value: < 40%; mid value: ≥ 40% and < 50%; large value: ≥ 50%

| compound | labelClass |
| --- | --- |
| CC1=[N+]([O-])C(c2ccccc2)Nc2c(I)cc(Br)cc21 (stereo not drawn) [Compound 3i] | small value |
| CC1=[N+]([O-])C(c2ccc(Cl)cc2)Nc2c(I)cc(Br)cc21 (stereo not drawn) [Compound 3k] | mid value |
| COc1ccc(C2Nc3ccc(I)cc3C(C)=[N+]2[O-])cc1 (stereo not drawn) [Compound 3h] | small value |
| CC1=[N+]([O-])C(c2ccc(F)cc2)Nc2ccc(I)cc21 (stereo not drawn) [Compound 3f] | mid value |
| CC1=[N+]([O-])C(c2ccc(Cl)cc2)Nc2c(Br)cc(I)cc21 (stereo not drawn) [Compound 3o] | mid value |
| CC1=[N+]([O-])C(c2ccc(F)cc2)Nc2c(Br)cc(I)cc21 (stereo not drawn) [Compound 3n] | large value |
| COc1ccc(C2Nc3c(I)cc(Br)cc3C(C)=[N+]2[O-])cc1 (stereo not drawn) [Compound 3l] | large value |
| COc1ccc(C2Nc3ccc(Br)cc3C(C)=[N+]2[O-])cc1 (stereo not drawn) [Compound 3d] | large value |

Lab note: which band did COc1ccc(C2Nc3c(Br)cc(I)cc3C(C)=[N+]2[O-])cc1 (stereo not drawn) [Compound 3p] land in?
large value

Lab note: which band did CC1=[N+]([O-])C(c2ccccc2)Nc2ccc(Br)cc21 (stereo not drawn) [Compound 3a] land in?
large value

Lab note: which band did CC1=[N+]([O-])C(c2ccc(F)cc2)Nc2c(I)cc(Br)cc21 (stereo not drawn) [Compound 3j] land in?
large value

---

System: lung cancer (A549) cell line
assayRemarks: MTT cytotoxicity assay, A549
measurementContext: Conc. 5 (µM per method); Table S3
Answer each item with its documented Cell viability percentage, A549.

| compound | Cell viability percentage, A549 |
| --- | --- |
| CC1=[N+]([O-])C(c2ccc(Cl)cc2)Nc2ccc(I)cc21 (racemic) | 56,2268% |
| CC1=[N+]([O-])C(c2ccc(Cl)cc2)Nc2c(I)cc(Br)cc21 (stereo not drawn) | 73,6416% |

Below are some compounds; for each one, tell me its Cell viability percentage, A549.
1. CC1=[N+]([O-])C(c2ccccc2)Nc2c(I)cc(Br)cc21 (stereo not drawn)
2. CC1=[N+]([O-])C(c2ccc(Cl)cc2)Nc2ccc(Br)cc21 (stereo not drawn)
3. CC1=[N+]([O-])C(c2ccc(F)cc2)Nc2ccc(Br)cc21 (stereo not drawn)
4. CC1=[N+]([O-])C(c2ccc(F)cc2)Nc2c(Br)cc(I)cc21 (stereo not drawn)
5. CC1=[N+]([O-])C(c2ccccc2)Nc2ccc(Br)cc21 (stereo not drawn)

["69,8954%", "66,5879%", "60,8505%", "73,2703%", "57,3068%"]

Below are some compounds; for each one, tell me its Cell viability percentage, A549.
1. CC1=[N+]([O-])C(c2ccc(F)cc2)Nc2c(I)cc(Br)cc21 (stereo not drawn)
2. CC1=[N+]([O-])C(c2ccccc2)Nc2c(Br)cc(I)cc21 (stereo not drawn)

67,1729%
68,6691%

---

Answer each item with its documented IC50.
measuredOn: superoxide dismutase (SOD)
assayRemarks: Superoxide dismutase (SOD) inhibitory assay (SOD assay kit-WST)
measurementContext: duplicate; 1-50 µM; 25 °C, 30 min; read-out: IC50 SOD inhibition
Answers are plain numbers, in µM.

Example results:
| compound | IC50 [µM] |
| --- | --- |
| CC1=[N+]([O-])C(c2ccc(F)cc2)Nc2c(Br)cc(I)cc21 (centres unmarked) | 6.2 |
| c1ccc2c(c1)[I+]c1ccccc1-2 [DPI, diphenyleneiodonium chloride, reference compound] | 0.71 |
| CC1=[N+]([O-])C(c2ccc(Cl)cc2)Nc2ccc(Br)cc21 (centres unmarked) | 4.6 |
| CC1=[N+]([O-])C(c2ccc(F)cc2)Nc2ccc(I)cc21 (centres unmarked) | 11.6 |
| CC1=[N+]([O-])C(c2ccccc2)Nc2c(I)cc(Br)cc21 (centres unmarked) | 15 |
| COc1ccc(C2Nc3c(Br)cc(I)cc3C(C)=[N+]2[O-])cc1 (centres unmarked) | 8.3 |

Below are some compounds; for each one, tell me its IC50.
1. CC1=[N+]([O-])C(c2ccccc2)Nc2ccc(Br)cc21 (centres unmarked)
2. COc1ccc(C2Nc3c(I)cc(Br)cc3C(C)=[N+]2[O-])cc1 (centres unmarked)

1: 15; 2: 5.6

---

Answer each item with its documented Cell viability percentage, A549.
Tested on: lung cancer (A549) cell line
assayRemarks: MTT cytotoxicity assay, A549
measurementContext: Conc. 25 (µM per method); Table S3

Example results:
| compound | Cell viability percentage, A549 |
| --- | --- |
| COc1ccc(C2Nc3c(I)cc(Br)cc3C(C)=[N+]2[O-])cc1 (centres unmarked) | 45,5732% |
| COc1ccc(C2Nc3ccc(I)cc3C(C)=[N+]2[O-])cc1 (centres unmarked) | 56,0806% |
| COc1ccc(C2Nc3c(Br)cc(I)cc3C(C)=[N+]2[O-])cc1 (centres unmarked) | 42,5649% |

Below are some compounds; for each one, tell me its Cell viability percentage, A549.
1. CC1=[N+]([O-])C(c2ccc(F)cc2)Nc2c(Br)cc(I)cc21 (centres unmarked)
2. CC1=[N+]([O-])C(c2ccc(Cl)cc2)Nc2ccc(Br)cc21 (centres unmarked)
3. CC1=[N+]([O-])C(c2ccc(Cl)cc2)Nc2c(I)cc(Br)cc21 (centres unmarked)
4. CC1=[N+]([O-])C(c2ccccc2)Nc2ccc(I)cc21 (centres unmarked)

1. 43,4807%
2. 41,782%
3. 42,682%
4. 40,2408%

Below are some compounds; for each one, tell me its Cell viability percentage, A549.
1. CC1=[N+]([O-])C(c2ccc(F)cc2)Nc2ccc(I)cc21 (centres unmarked)
2. CC1=[N+]([O-])C(c2ccccc2)Nc2c(I)cc(Br)cc21 (centres unmarked)
3. CC1=[N+]([O-])C(c2ccccc2)Nc2ccc(Br)cc21 (centres unmarked)

1: 44,212%; 2: 43,9195%; 3: 41,1182%

Below are some compounds; for each one, tell me its Cell viability percentage, A549.
1. CC1=[N+]([O-])C(c2ccc(Cl)cc2)Nc2ccc(I)cc21 (racemic)
2. CC1=[N+]([O-])C(c2ccc(F)cc2)Nc2c(I)cc(Br)cc21 (centres unmarked)
3. CC1=[N+]([O-])C(c2ccccc2)Nc2c(Br)cc(I)cc21 (centres unmarked)
4. CC1=[N+]([O-])C(c2ccc(F)cc2)Nc2ccc(Br)cc21 (centres unmarked)

43,0757%
42,6257%
42,2995%
42,7495%
